The reported measurements were obtained from patent US12098109B2.

- assay-summary: 1% dispersibility in water, 1 gram of sample in 99 grams of water
- experimental-setup: 4% organic liquid added to Example 56
1% dispersibility in water rating reference
Please reply with the value in numeric form only.

Quick one: 1% dispersibility in water rating for CC1(C)OCC(CO)O1 (stereo not shown) ?
6

Consider the compound `CN1CCCC1=O` and give its measured 1% dispersibility in water rating.
3

Please look up its 1% dispersibility in water rating: `OCC(O)CO`
6

Any idea what 1% dispersibility in water rating was measured for C[S+](C)[O-] [dimethyl sulfoxide] ?
4
